# TESTED SYSTEM: T1, soluble human RGMa (human, UniProt Q96B86 48-422, limits assumed)
# T1 construct: Soluble antigen in BIAcore; also called huRGMa; repulsive guidance molecule A
# T1 sequence (looked up): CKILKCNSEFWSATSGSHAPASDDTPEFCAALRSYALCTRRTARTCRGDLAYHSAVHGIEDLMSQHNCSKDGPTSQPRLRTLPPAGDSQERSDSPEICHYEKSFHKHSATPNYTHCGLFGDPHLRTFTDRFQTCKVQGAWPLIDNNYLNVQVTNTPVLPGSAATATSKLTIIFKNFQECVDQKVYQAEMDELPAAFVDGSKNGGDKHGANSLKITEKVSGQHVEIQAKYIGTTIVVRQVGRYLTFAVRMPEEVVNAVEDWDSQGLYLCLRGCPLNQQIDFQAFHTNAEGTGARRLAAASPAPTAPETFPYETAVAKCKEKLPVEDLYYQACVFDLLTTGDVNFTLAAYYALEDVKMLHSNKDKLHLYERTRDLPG
# PROTOCOL NOTES: SPR (BIAcore);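 further: Anti-HJV antibodies tested for binding against soluble human RGMa by surface plasmon resonance on a BIAcore instrument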
OBSERVED PROPERTY: kon (M⁻¹ s⁻¹)
Record the value in M⁻¹ s⁻¹, omitting the unit from your answer.

Some binders with known kon results, for comparison:
Qu. // query kon value for entry hHA-001 (antibody, human IgG1, kappa, L234A L235A, V domains shown, hIgG1 constant region with L234A, L235A, kappa) VH: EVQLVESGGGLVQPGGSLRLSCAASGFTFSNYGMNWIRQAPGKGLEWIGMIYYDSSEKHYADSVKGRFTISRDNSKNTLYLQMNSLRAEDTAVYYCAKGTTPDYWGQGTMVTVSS VL: DVVLTQSPLSLPVTLGQPASISCRSSQSLETSDGDTFLEWFQQRPGQSPRLLIYEVSTRFSGVPDRFSGSGSGTDFTLKISRVEAEDVGVYYCFQVTHDPMTFGQGTKLEIKR
Ans. 1.8e+06

Qu. May I ask what kon has been recorded for hHA-009 (antibody, human IgG1, kappa, L234A L235A, V domains shown, hIgG1 L234A, L235A, kappa) VH: EVQLVESGGGLVQPGGSLRLSCAASGFTFSNYGMNWVRQAPGKGLEWIGMIYYDSSEKHYADSVKGRFTISRDNSKNTLYLQMNSLRAEDTAVYYCAKGTTPDYWGQGTMVTVSS VL: DVVLTQSPLSLPVTLGQPASISCRSSQSLADSDGDTFLHWFQQRPGQSPRLLIYAVSHRFSGVPDRFSGSGSGTDFTLKISRVEAEDVGVYYCFQATHDPVTFGQGTKLEIKR ?
Ans. 860000

Okay, now this binder:
Qu. Entry hHA-003 (antibody, human IgG1, kappa, L234A L235A, V domains shown, hIgG1 L234A, L235A, kappa) VH: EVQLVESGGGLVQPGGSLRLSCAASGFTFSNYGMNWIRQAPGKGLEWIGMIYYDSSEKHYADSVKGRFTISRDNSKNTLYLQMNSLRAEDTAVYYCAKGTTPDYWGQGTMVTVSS VL: DVVLTQSPLSLPVTLGQPASISCRSSQSLETSDGDTFLEWFQQRPGQSPRLLIYEVSNRFSGVPDRFSGSGSGTDFTLKISRVEAEDVGVYYCFQVTHDPVTFGQGTKLEIKR : reported kon = ?
Ans. 1.1e+06

Reference source for all entries: patent US20240417458A1
